Reported hERG current change (%, negative = inhibition) at 10uM is given for each of the following molecules.
Target: human ether-à-go-go-related gene (hERG) potassium channel (human, UniProt Q12809)
Sequence (Q12809 whole entry, looked up): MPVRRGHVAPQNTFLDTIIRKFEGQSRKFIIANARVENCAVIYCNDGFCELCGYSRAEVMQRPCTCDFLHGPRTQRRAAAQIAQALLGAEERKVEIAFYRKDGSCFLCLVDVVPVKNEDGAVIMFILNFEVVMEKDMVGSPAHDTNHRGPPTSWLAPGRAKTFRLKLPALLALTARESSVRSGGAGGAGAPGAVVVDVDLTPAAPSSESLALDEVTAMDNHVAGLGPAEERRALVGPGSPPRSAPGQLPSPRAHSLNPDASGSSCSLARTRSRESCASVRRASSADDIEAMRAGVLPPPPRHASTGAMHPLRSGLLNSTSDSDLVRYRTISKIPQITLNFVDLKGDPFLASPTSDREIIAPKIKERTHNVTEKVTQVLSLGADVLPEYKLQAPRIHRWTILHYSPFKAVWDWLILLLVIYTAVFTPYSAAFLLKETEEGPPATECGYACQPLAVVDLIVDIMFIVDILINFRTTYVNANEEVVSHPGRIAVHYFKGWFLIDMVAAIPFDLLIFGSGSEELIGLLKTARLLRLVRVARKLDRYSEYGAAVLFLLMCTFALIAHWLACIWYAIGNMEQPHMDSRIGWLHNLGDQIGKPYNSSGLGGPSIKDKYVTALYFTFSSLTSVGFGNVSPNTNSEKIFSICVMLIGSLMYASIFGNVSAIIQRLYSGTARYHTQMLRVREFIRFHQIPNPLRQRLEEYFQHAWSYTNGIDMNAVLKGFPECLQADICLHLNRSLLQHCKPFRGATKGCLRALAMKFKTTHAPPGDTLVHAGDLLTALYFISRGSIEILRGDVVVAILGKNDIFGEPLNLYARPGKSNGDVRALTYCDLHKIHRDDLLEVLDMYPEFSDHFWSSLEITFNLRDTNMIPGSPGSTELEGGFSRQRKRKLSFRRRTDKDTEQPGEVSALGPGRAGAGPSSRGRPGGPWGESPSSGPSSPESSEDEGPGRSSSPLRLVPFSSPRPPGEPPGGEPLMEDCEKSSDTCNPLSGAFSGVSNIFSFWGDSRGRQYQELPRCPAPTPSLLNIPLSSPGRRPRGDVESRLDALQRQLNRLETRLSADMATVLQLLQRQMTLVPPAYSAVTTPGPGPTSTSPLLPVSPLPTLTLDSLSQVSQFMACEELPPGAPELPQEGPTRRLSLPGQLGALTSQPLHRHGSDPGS
Assay: primary screen, population patch clamp on CHO cells stably expressing hERG; higher = less effect of the substance
The campaign covered roughly 310,000 compounds. About 14,000 (4.5%) showed an effect of 50% or more. The effect is printed as a negative number. The sample holds strong results, similar compounds and a random draw of the others, so the mix is not that of the screen.
Unit % implied. Number only.

Example molecules with recorded hERG current change (%, negative = inhibition) at 10uM:
[
  {
    "Molecule": "CCOc1ccc(NS(=O)(=O)c2ccc(NC(=S)NC(=O)CC(C)C)cc2)cc1",
    "Experimental result": 8.92
  },
  {
    "Molecule": "Cc1ccc(-c2cc(C(=O)N3CCN(c4ccccc4O)CC3)c3ccccc3n2)cc1",
    "Experimental result": -1.9
  },
  {
    "Molecule": "Cc1ccc(-c2cc(C(=O)N3CCN(c4ccc(F)cc4)CC3)c3ccccc3n2)o1",
    "Experimental result": -35.7
  },
  {
    "Molecule": "O=C(c1cc(-c2ccncc2)nc2ccccc12)N1CCN(c2ccccc2O)CC1",
    "Experimental result": -64.3
  },
  {
    "Molecule": "Cc1cc(C)c2nc(N(CCCN(C)C)C(=O)c3ccc4c(c3)OCCO4)sc2c1.Cl",
    "Experimental result": -51.2
  },
  {
    "Molecule": "COc1ccc(C)c2sc(N(CCCN(C)C)C(=O)c3ccc4c(c3)OCCO4)nc12.Cl",
    "Experimental result": -75.6
  },
  {
    "Molecule": "COCCN(C(=O)c1cccc(N2C(=O)CCC2=O)c1)c1nc(-c2ccc([N+](=O)[O-])cc2)cs1",
    "Experimental result": -50.2
  },
  {
    "Molecule": "COc1ccc(-c2csc(NC(=O)c3cccc(N4C(=O)CCC4=O)c3)n2)cc1OC",
    "Experimental result": -1.68
  }
]

Exercise: Given CC(=O)N1CCN(C(=O)c2cc(-c3ccc(C)o3)nc3ccccc23)CC1 , state its recorded hERG current change (%, negative = inhibition) at 10uM.
Solution: -10.1

Exercise: Try the molecule CNC(=O)CSc1nccn1Cc1ccc(Cl)cc1
Solution: -64.9

Exercise: Also Cc1ccc(-c2cc(C(=O)N3CCN(c4ccccc4O)CC3)c3ccccc3n2)o1 , if possible.
Solution: -70.9

Exercise: Next molecule up: C/C=C/c1cc(OC)c2c(c1)[C@H](C)[C@@H](c1ccc(O)c(OC)c1)O2
Solution: 15.9

Exercise: Moving on to the next molecule: CCOC(=O)C1CCCN(C(=O)c2cc(-c3ccc(C)cc3)nc3ccccc23)C1 (stereo not shown)
Solution: -37.6

Exercise: Request: O=C(c1cc(-c2cccs2)nc2ccccc12)N1CCN(S(=O)(=O)c2ccccc2)CC1
Solution: -5.65

Exercise: Do the same for COc1ccc(C)c2sc(N(CCN(C)C)C(=O)c3ccc4ccccc4c3)nc12.Cl please
Solution: -20.7

Exercise: Moving on to O=C(c1cc(-c2ccccc2)nc2ccccc12)N1CCN(c2ccccc2O)CC1
Solution: -10.9

Exercise: Also need Cc1ccc(OCC(=O)N/N=C/c2ccncc2)cc1C , thanks.
Solution: 5.75

Exercise: Next entry: CC1CC(C)CN(C(=O)CNS(=O)(=O)c2ccc(Br)s2)C1 (stereo not shown)
Solution: -1.92

Exercise: Try this molecule too: NC(=O)CSc1nccn1Cc1ccc(Cl)cc1
Solution: 19.1

###

Target: human ether-à-go-go-related gene (hERG) potassium channel (human);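 note: peak tail current of the secondary pulse compared with the same well before compound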
Test: primary screen, population patch clamp on CHO cells stably expressing hERG; higher = less effect of the substance
Hit rate of the full screen: of about 310,000 compounds, about 14,000 (4.5%) showed an effect of 50% or more. Effects have a minus sign here. The list comes from a sample in which strong results are over-represented; it also holds close analogues and randomly drawn compounds.
Reported metric: hERG current change (%, negative = inhibition) at 10uM (%)
Note: unit % is implicit; provide only the numeric part.

Exercise: Look up hERG current change (%, negative = inhibition) at 10uM for this compound: Cc1ccc(C2CC(c3cccc(Br)c3)Nc3nnnn32)cc1 (centres unmarked)
Solution: -7.07

Exercise: // query: O=C(CSc1nnc(-c2cccnc2)n1CCc1ccccc1)NCc1ccccc1
Solution: -10.9

Exercise: Query CCCCC(C(=O)NC(=O)NCc1ccccc1)N1C(=O)c2ccccc2C1=O (centres unmarked) next
Solution: 11

Exercise: Field entry: COC(=O)Cc1ccc(NC(=S)N2CCN(CCO)CC2)cc1
Solution: 3.63

Exercise: Subsequent entry: FC(F)(F)c1cc(-c2ccc(Cl)cc2)nc(NCc2cccnc2)n1
Solution: 3.07

###

Biological target: human ether-à-go-go-related gene (hERG) potassium channel (human, UniProt Q12809);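 note: peak tail current of the secondary pulse compared with the same well before compound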
Test: primary screen, population patch clamp on CHO cells stably expressing hERG; higher = less effect of the substance
About 14,000 (4.5%) of roughly 310,000 compounds showed an effect of 50% or more. Effects have a minus sign here. This excerpt belongs to a sample that is enriched for strong results.
Reported metric: hERG current change (%, negative = inhibition) at 10uM (%)
Unit % implied. Number only.

[
  {
    "Molecule": "COc1ccc(CCNC(=O)/C(C#N)=C/c2ccc(OCC(=O)NCC3CCCO3)cc2)cc1OC (centres unmarked)",
    "Assay target": "human ether-à-go-go-related gene (hERG) potassium channel (human, UniProt Q12809)",
    "Experimental result": 11.7
  },
  {
    "Molecule": "COC(=O)C1CC(O)CN1C(=O)c1ccco1 (centres unmarked)",
    "Assay target": "human ether-à-go-go-related gene (hERG) potassium channel (human, UniProt Q12809)",
    "Experimental result": 10.6
  },
  {
    "Molecule": "CCCn1c(NC(=O)c2ccco2)nc2ccccc21",
    "Assay target": "human ether-à-go-go-related gene (hERG) potassium channel (human, UniProt Q12809)",
    "Experimental result": 9.09
  },
  {
    "Molecule": "O=C(Nc1nc2ccccc2n1Cc1ccccc1)c1ccco1",
    "Assay target": "human ether-à-go-go-related gene (hERG) potassium channel (human, UniProt Q12809)",
    "Experimental result": 20.2
  },
  {
    "Molecule": "CCn1c(/C=C\\c2ccccc2C)nc2ccccc2c1=O",
    "Assay target": "human ether-à-go-go-related gene (hERG) potassium channel (human, UniProt Q12809)",
    "Experimental result": -19.1
  }
]

Exercise: Request: hERG current change (%, negative = inhibition) at 10uM, test system human ether-à-go-go-related gene (hERG) potassium channel (human, UniProt Q12809), entry O=C1NCCCc2nc(Oc3ccccc3)sc21;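 note: peak tail current of the secondary pulse compared with the same well before compound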
Solution: 0.239

Exercise: Also, O=C(CSc1nnc(-c2ccco2)n1Cc1ccccc1)OC1CCCCC1 please.
Solution: -92.1

Exercise: Entry O=C(Nc1nc2ccccc2n1CCN1CCCCC1)C1CCCCC1 please
Solution: -61.2

Exercise: Input O=C(COC(=O)CC1CCCC1)Nc1cccc(F)c1
Solution: -1.79

Exercise: Can you check COc1ccccc1/C=C1/C(=O)ON=C1C next?
Solution: 12.5

Exercise: Also, CCCCn1c(NC(=O)C2CCCCC2)nc2ccccc21 please.
Solution: 4.63

Exercise: Also need COc1ccc(C)cc1NC(=O)CSc1nnc(-c2ccco2)n1Cc1ccco1 , thanks.
Solution: -12.8

Exercise: Then what about the molecule COc1ccc(OC)c(NC(=O)C2CCCN(S(=O)(=O)c3c(C)noc3C)C2)c1 (centres unmarked) ?
Solution: -16.8

Exercise: Cool, now COc1cccc(-c2nc(CS(=O)(=O)CC(=O)NCCc3ccc(OC)cc3OC)c(C)o2)c1
Solution: -13

Exercise: And what about the molecule Cc1ccc(-c2noc(CSc3ccccc3)n2)cc1 ?
Solution: 10.2

###

Target: human ether-à-go-go-related gene (hERG) potassium channel (human, UniProt Q12809);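 note: peak tail current of the secondary pulse compared with the same well before compound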
Assay: primary screen, population patch clamp on CHO cells stably expressing hERG; higher = less effect of the substance
The campaign covered roughly 310,000 compounds. About 14,000 (4.5%) showed an effect of 50% or more. Effects have a minus sign here. The full list was thinned out, with strong results kept by preference.
Reported metric: hERG current change (%, negative = inhibition) at 10uM (%)
Use % as the unit, but write only the number.

Guide cases for hERG current change (%, negative = inhibition) at 10uM, answers given:
[
  {
    "Molecule": "CCOC(=O)C1CCN(C(=O)c2ccc(Cl)c(S(=O)(=O)N3CCOCC3)c2)CC1",
    "Experimental result": -32.4
  },
  {
    "Molecule": "CCOC(=O)C1CCN(S(=O)(=O)c2ccc(CNC(=O)c3ccccc3)s2)CC1",
    "Experimental result": -50.3
  },
  {
    "Molecule": "CN(C)CCCNc1oc(/C=C/c2ccccc2)nc1C#N",
    "Experimental result": -32.5
  },
  {
    "Molecule": "CCN1CCN(c2oc(/C=C/c3ccccc3)nc2C#N)CC1",
    "Experimental result": -63.1
  },
  {
    "Molecule": "CNc1oc(/C=C/c2ccccc2)nc1C#N",
    "Experimental result": 8.33
  },
  {
    "Molecule": "COc1cccc(CN2C(=O)CCC2(C)C(=O)NC2CCCCC2)c1 (stereo not drawn)",
    "Experimental result": 12.9
  }
]

Exercise: Record O=C(COc1ccc(Cl)cc1)NNC(=O)CSc1nncs1 : what is its hERG current change (%, negative = inhibition) at 10uM with human ether-à-go-go-related gene (hERG) potassium channel (human, UniProt Q12809)?
Solution: 8.43

Exercise: Request: CN1CCN(S(=O)(=O)c2ccc(CNC(=O)c3ccccc3)s2)CC1
Solution: 23.1

Attribution: paper PMC4336329
